# SYSTEM_UNDER_TEST: KOR (Mus musculus)
# ASSAY_NAME: Competitive radioligand binding assay, KOR
# CONDITION: ratio of Ki DOR/KOR
METRIC_NAME: Selectivity D/K
Respond using a number only.

# count of solved cases: 2
>  <TEST_SMILES>
CN(C(=O)/C=C/c1ccoc1)[C@H]1CC[C@@]2(O)[C@H]3Cc4cccc5c4[C@@]2(CCN3CC2CC2)[C@H]1O5.Cl

>  <Selectivity D/K>
249

$$$$
>  <TEST_SMILES>
Cl.O=C(/C=C/c1ccoc1)N[C@H]1CC[C@@]2(O)[C@H]3Cc4ccc(O)c5c4[C@@]2(CCN3CC2CC2)[C@H]1O5

>  <Selectivity D/K>
10

$$$$

Attention now shifts to the item below.
Look up Selectivity D/K for this molecule: CN(C(=O)/C=C/c1ccoc1)[C@@H]1CC[C@@]2(O)[C@H]3Cc4cccc5c4[C@@]2(CCN3CC2CC2)[C@H]1O5.Cl 343

* * *

DOR %Emax by entry:
# SYSTEM_UNDER_TEST: DOR (Mus musculus, UniProt P32300)
# ASSAY_NAME: [35S]-GTPγS binding assay, mDOR-CHO membrane
# Type: biochemical
# CONDITION: %Emax = 100 defined using 5 μM SNC80; mean ± SEM
Answer format: numeric, % implied, no suffix.

>  <TEST_SMILES>
Cl.O=C(/C=C/c1ccoc1)N[C@@H]1CC[C@@]2(O)[C@H]3Cc4ccc(O)c5c4[C@@]2(CCN3CC2CC2)[C@H]1O5

>  <UNIT_NAME>
%

>  <EXPERIMENTAL_VALUE>
103

$$$$
>  <TEST_SMILES>
CN(C(=O)/C=C/c1ccoc1)[C@H]1CC[C@@]2(O)[C@H]3Cc4cccc5c4[C@@]2(CCN3CC2CC2)[C@H]1O5.Cl

>  <UNIT_NAME>
%

>  <EXPERIMENTAL_VALUE>
108

$$$$

Lab note: next molecule to report on.
Look up DOR %Emax: Cl.O=C(/C=C/c1ccoc1)N[C@H]1CC[C@@]2(O)[C@H]3Cc4cccc5c4[C@@]2(CCN3CC2CC2)[C@H]1O5 102

* * *

# SYSTEM_UNDER_TEST: KOR (Mus musculus)
# ASSAY_NAME: [35S]-GTPγS binding assay, mKOR-CHO membrane
# Assay type: biochemical
# CONDITION: %Emax = 100 defined using 5 μM U50,488H; mean ± SEM
METRIC_NAME: KOR %Emax (%)
Express the result in % but write the number alone.

Below, each entry is followed by its recorded KOR %Emax result.
>  <TEST_SMILES>
Cl.O=C(/C=C/c1ccoc1)N[C@H]1CC[C@@]2(O)[C@H]3Cc4ccc(O)c5c4[C@@]2(CCN3CC2CC2)[C@H]1O5

>  <SYSTEM_UNDER_TEST>
KOR (Mus musculus)

>  <METRIC_NAME>
KOR %Emax

>  <UNIT_NAME>
%

>  <EXPERIMENTAL_VALUE>
73.7

$$$$
>  <TEST_SMILES>
Cl.O=C(/C=C/c1ccoc1)N[C@H]1CC[C@@]2(O)[C@H]3Cc4cccc5c4[C@@]2(CCN3CC2CC2)[C@H]1O5

>  <SYSTEM_UNDER_TEST>
KOR (Mus musculus)

>  <METRIC_NAME>
KOR %Emax

>  <UNIT_NAME>
%

>  <EXPERIMENTAL_VALUE>
103

$$$$

Next:
Give its KOR %Emax value. Item: CN(C(=O)/C=C/c1ccoc1)[C@H]1CC[C@@]2(O)[C@H]3Cc4cccc5c4[C@@]2(CCN3CC2CC2)[C@H]1O5.Cl 98.4
